Protocol Notes: modulators of CIT2-GFP expression in yeast, confirmation, S. cerevisiae, GFP fusion, cherry picks, mother/daughter gates (AID 2274)
Experimental Parameters: S. cerevisiae CIT2-GFP strain, flow cytometry, 3 h; measured here: daughter cell gate; at 10 µM; stronger effect = higher value
Value Type: GFP response, % of DMSO

CCN(CC)C(=O)Cn1c(C)c(/C=C/c2cc[n+](C)cc2)c2ccccc21 = 110%
CCc1ccc(-c2csc(NC(=O)COC(=O)CCc3nc4ccccc4s3)n2)cc1 = 101%
Cc1ccc(NC(=O)COc2ccc(Br)cc2C)cc1 = 98.3%

* * *

Protocol Notes: RPL19A-GFP modulators, yeast TOR pathway, confirmation, cell-based, S. cerevisiae, flow cytometry, cherry picks, mother/daughter gates (AID 2270)
Experimental Parameters: S. cerevisiae RPL19A-GFP strain, 3 h, measured here: daughter cell gate, at 10 µM, stronger effect = lower value, 100 = same GFP as DMSO wells
Each record here notes measured GFP response vs DMSO.
Value Type: GFP response vs DMSO (%)

Cc1sc(NC(=O)c2ccco2)nc1-c1ccccc1 = 92.2
O=C1/C(=C/c2ccccn2)COc2ccccc21 = 96.4
CC(NCCS(=O)(=O)c1ccc(Cl)cc1)c1cccc(Cl)c1 (stereo unspecified) = 96.4
COc1ccc(C2CC(c3cccs3)=NN2S(=O)(=O)c2ccc(C)cc2)cc1 (stereo unspecified) = 99.1
CC(C)Nc1nc(-c2ccccc2)nnc1-c1ccccc1 = 98.4
CCOc1cc(-c2noc(-c3cccnc3)n2)ccc1OC = 94.7
